Target: MaxL homodimer (Homo sapiens, UniProt P61244 1-160)
Sequence (P61244 whole entry): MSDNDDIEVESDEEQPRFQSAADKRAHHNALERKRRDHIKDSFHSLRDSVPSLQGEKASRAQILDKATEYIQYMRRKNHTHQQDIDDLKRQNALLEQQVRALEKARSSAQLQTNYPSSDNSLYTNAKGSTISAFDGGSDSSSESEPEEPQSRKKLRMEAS
Assay: universal protein-binding microarray (PBM); PBS-based mixture, 10 nM His-tagged protein dimer, 2% milk, 200 ng/uL BSA, 50 ng/uL salmon testes DNA, 0.02% TX-100; detection with Alexa 488 anti-His antibody;; high values mean tight binding;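 also: fluorescence intensity normalized to that of the highest-ranked 8-mer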
Conditions: protein: recombinant; tags: C-terminal His-tag (pET21a); chain copies: 2; dsDNA, one strand shown
Whole data set: some 33,000 sequences, median “normalized occupancy” near 0.075, cut for the highest 2% near 0.095. Shown is part of a subset that was picked to be rich in the highest values.
readout label: binding signal (normalized occupancy)
Numbers only, in normalized occupancy.

Guide cases for binding signal, answers given:
CGCGTTGC	0.0781
AACGTTGG	0.0767
CCGAATGA	0.0745
AGACCCTC	0.0752
CCACATGA	0.134

Give binding signal for each listed item.
1. CCACATTC
2. AACTTATT
3. CGTGACCA
4. GAAATTTA
5. CCACATGG
6. CTCAATCA
7. ACGTATTA
8. ATAGTCAG

Result:
1: 0.0852; 2: 0.0797; 3: 0.0992; 4: 0.0725; 5: 0.227; 6: 0.0801; 7: 0.0818; 8: 0.0801
